Ref: paper PMC10331583

experiment: Cytotoxicity assay in cells stably expressing PARS1 mutant; conditions: human, Cytotoxicity, % of control, average, WI-26 VA4 Flag-PARS1 FA/EA/RL; 1000 nM
measured_parameter: activity at 72 h, 1 µM (%)
Lab book: enter the figure in %, no units written.

Query: Quick check: activity at 72 h, 1 µM of O[C@H]1CCCN[C@@H]1CCCn1cnc2c(Cl)c(Cl)ccc21 [DWN12088] ?
Result: 111

* * *

Exercise: for every item that follows, state its recorded activity at 30 µM.
system: WI‐26 VA4 cells; experiment: CellTiter‐Glo assay (cytotoxicity); conditions: Homo sapiens, WI26VA4, read-out: CellTiter-Glo % of control, 30000 nM; Experiment #1, replicates
Report the figure in % without appending any unit label.

Query: Which activity at 30 µM value belongs to Cc1c(Cl)ccc2c1ncn2CC(=O)C[C@H]1NCCC[C@@H]1O [DWN11748] ?
Result: 18.8

Query: Let us now turn to O=C(C[C@H]1NCCC[C@@H]1O)Cn1cnc2ccc(-c3cccc(F)c3)cc21 [DWN11251]
Result: 12.4

Query: Next compound up: Cc1c(Br)cnc2c1ncn2CC(=O)C[C@H]1NCCC[C@@H]1O [DWN11761]
Result: 6.42

Query: How about O[C@H]1CCCN[C@@H]1CCCn1cnc2c(Cl)c(Cl)ccc21 [DWN12088] ?
Result: 34.8

* * *

assay: in vitro; conditions: human, Cytotoxicity, % of control (single replicates, Experiment #1-#4)
measured_parameter: activity at 72 h, 0.03 µM
Give your result as the value with the unit written after it.

Query: Quick check: activity at 72 h, 0.03 µM of O=C(CC1NCCCC1O)Cn1cnc2cc(Br)c(Cl)cc2c1=O (stereo not shown) [HF, Halofuginone, reference compound] ?
Result: 71.4%

* * *

tested on: WI‐26 VA4 cells; assay: Collagen ELISA (secreted pro‐collagen I); conditions: Homo sapiens, WI26VA4, read-out: Collagen IC50 (best-fit value)
measured_parameter: pIC50
Schema: pIC50 number; meaning minus log10 of the concentration expressed in molar units.

Query: Under WI‐26 VA4 cells: pIC50 value of O[C@H]1CCCN[C@@H]1CCCn1cnc2c(Cl)c(Cl)ccc21 [DWN12088] ?
Result: 5.69

* * *

assay: in vitro; conditions: human, Cytotoxicity, % of control, average
measured_parameter: activity at 72 h, 1 µM (%)
Note: unit % is implicit; provide only the numeric part.

Query: Tell me the measured activity at 72 h, 1 µM of O=C(CC1NCCCC1O)Cn1cnc2cc(Br)c(Cl)cc2c1=O (stereo not shown) [HF, Halofuginone, reference compound] , please.
Result: 20

* * *

assay: in vitro; conditions: human, Cytotoxicity, % of control (single replicates, Experiment #1-#4)
measured_parameter: activity at 72 h, 0.3 µM (%)
Could you give me the number in %? Just the number is fine.

Query: activity at 72 h, 0.3 µM lookup needed for O=C(CC1NCCCC1O)Cn1cnc2cc(Br)c(Cl)cc2c1=O (stereo not shown) [HF, Halofuginone, reference compound] , thanks.
Result: 34.8

* * *

tested on: WI‐26 VA4 cells; test: Collagen ELISA (secreted pro‐collagen I); conditions: Homo sapiens, WI26VA4, read-out: Collagen, % of control, average, 3000 nM; average
measured_parameter: activity at 3 µM

Query: Fill in the recorded activity at 3 µM for this compound, with WI‐26 VA4 cells as test system: Cc1c(Br)cnc2c1ncn2CC(=O)C[C@H]1NCCC[C@@H]1O [DWN11761]
Result: 1.46%

Query: Cc1c(Cl)ccc2c1ncn2CC(=O)C[C@H]1NCCC[C@@H]1O [DWN11748] , same question.
Result: 2.58%

Query: One more compound: O[C@H]1CCCN[C@@H]1CCCn1cnc2c(Cl)c(Cl)ccc21 [DWN12088]
Result: 37.7%

Query: Thanks! And O=C(C[C@H]1NCCC[C@@H]1O)Cn1cnc2ccc(-c3cccc(F)c3)cc21 [DWN11251] ?
Result: 3.27%

* * *

system: WI‐26 VA4 cells; assay: CellTiter‐Glo assay (cytotoxicity); conditions: Homo sapiens, WI26VA4, read-out: CellTiter-Glo % of control, 300 nM; Experiment #2, replicates
So I've got a bunch of compounds here, and I need their activity at 0.3 µM values.
Note to self: number, then unit, no commentary.

Query: # input compound: O[C@H]1CCCN[C@@H]1CCCn1cnc2c(Cl)c(Cl)ccc21 [DWN12088] ; wanted: its activity at 0.3 µM
Result: 102%

Query: What about O=C(C[C@H]1NCCC[C@@H]1O)Cn1cnc2ccc(-c3cccc(F)c3)cc21 [DWN11251] ?
Result: 105%

Query: Also need O=C(CC1NCCCC1O)Cn1cnc2cc(Br)c(Cl)cc2c1=O (stereo not shown) [HF, Halofuginone, reference compound] , thanks.
Result: 17.6%

Query: // query: Cc1c(Cl)ccc2c1ncn2CC(=O)C[C@H]1NCCC[C@@H]1O [DWN11748]
Result: 68.5%

* * *

test: Cytotoxicity assay in cells stably expressing PARS1 mutant; conditions: human, Cytotoxicity, % of control (single replicates, Experiment #1-#4), WI-26 VA4 Flag-PARS1 FA/EA/RL; 3000 nM
measured_parameter: activity at 72 h, 3 µM (%)
State just the number; it will be interpreted in %.

Query: Entry "O[C@H]1CCCN[C@@H]1CCCn1cnc2c(Cl)c(Cl)ccc21" has what activity at 72 h, 3 µM?
Result: 85.2

* * *

assay: Cytotoxicity assay in cells stably expressing PARS1 mutant; settings: human
measured_parameter: CC50 at 72 h (µM)
Report the value in µM with no unit label.

Query: Name the reported CC50 at 72 h value associated with the molecule "O[C@H]1CCCN[C@@H]1CCCn1cnc2c(Cl)c(Cl)ccc21"
Result: 11.8

* * *

system: WI‐26 VA4 cells; experiment: CellTiter‐Glo assay (cytotoxicity); conditions: Homo sapiens, WI26VA4, read-out: CellTiter-Glo % of control, 3000 nM; Experiment #2, replicates
Could you please report measured activity at 3 µM for the items listed next?
Enter your answer as a number in %; do not include the unit.

Query: Recorded activity at 3 µM for "O=C(C[C@H]1NCCC[C@@H]1O)Cn1cnc2ccc(-c3cccc(F)c3)cc21" , please?
Result: 46.1

Query: What about O=C(CC1NCCCC1O)Cn1cnc2cc(Br)c(Cl)cc2c1=O (centres unmarked) [HF, Halofuginone, reference compound] ?
Result: 11

Query: Please give the result for "Cc1c(Cl)ccc2c1ncn2CC(=O)C[C@H]1NCCC[C@@H]1O" too.
Result: 29.4

Query: Next up: "O[C@H]1CCCN[C@@H]1CCCn1cnc2c(Cl)c(Cl)ccc21"
Result: 90.3

Query: Try this compound too: "Cc1c(Br)cnc2c1ncn2CC(=O)C[C@H]1NCCC[C@@H]1O"
Result: 30.3

* * *

Record form. Attribute: CC50/collagen IC50. Fill in for each entry.
system: WI‐26 VA4 cells; assay: Collagen ELISA (secreted pro‐collagen I); conditions: Fig 5E
Reply: number alone, nothing else.

Query: Could you share what CC50/collagen IC50 was measured for "O[C@H]1CCCN[C@@H]1CCCn1cnc2c(Cl)c(Cl)ccc21" , tested on WI‐26 VA4 cells?
Result: 10.07

Query: Okay, and "Cc1c(Cl)ccc2c1ncn2CC(=O)C[C@H]1NCCC[C@@H]1O" ?
Result: 5.39

Query: Entry "Cc1c(Br)cnc2c1ncn2CC(=O)C[C@H]1NCCC[C@@H]1O" please
Result: 5.47

Query: Follow-up entry: "O=C(C[C@H]1NCCC[C@@H]1O)Cn1cnc2ccc(-c3cccc(F)c3)cc21"
Result: 7.08

* * *

test: Cytotoxicity assay in cells stably expressing EV; conditions: human, Cytotoxicity, % of control, average, WI-26 VA4 EV; 100 nM
measured_parameter: activity at 72 h, 0.1 µM (%)
Just the number in %, nothing appended.

Query: Entry "O[C@H]1CCCN[C@@H]1CCCn1cnc2c(Cl)c(Cl)ccc21" has what activity at 72 h, 0.1 µM?
Result: 127

* * *

assay: Cytotoxicity assay in cells stably expressing EV; settings: human, Cytotoxicity, % of control, average, WI-26 VA4 EV; 300000 nM
measured_parameter: activity at 72 h, 300 µM (%)
Give the quantity in %, number only.

Query: Any idea what activity at 72 h, 300 µM was measured for "O[C@H]1CCCN[C@@H]1CCCn1cnc2c(Cl)c(Cl)ccc21" ?
Result: 1.78

* * *

assay: Cytotoxicity assay in cells stably expressing PARS1 mutant; details: human, Cytotoxicity, % of control, average, WI-26 VA4 Flag-PARS1 FA/EA/RL; 300000 nM
measured_parameter: activity at 72 h, 300 µM (%)
Respond numerically; units are % and should not be typed.

Query: Which measured activity at 72 h, 300 µM value corresponds to "O[C@H]1CCCN[C@@H]1CCCn1cnc2c(Cl)c(Cl)ccc21" ?
Result: 1.1
